Experiment: NCI Yeast Anticancer Drug Screen. Data for the wt1 strain (AID 149);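 further: 0% = growth of vehicle-treated wt1 cultures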
Conditions: S. cerevisiae wt1 strain (SPY 50644) growth inhibition; at 33.0 µM; active compounds read high
About 79,000 compounds went through this panel and 15% of them were active in at least one assay; those are over-represented in the sample as a whole.
So basically: growth inhibition at 20% or higher? That is Y. Lower than 20%? That is N.

Solved entries:
- Cc1nc2ccc(NCCN(C)C)c3c(=O)c4ccccc4n1c23: Y
- O=c1oc(C(C(F)(F)F)C(F)(F)F)nc2ccccc12: Y
- Cc1ccc(SSc2ccc(C)cc2[N+](=O)[O-])c([N+](=O)[O-])c1: Y

## Input # bool: growth inhibition of Cc1nc2ccccc2c(=O)n1NC(=O)c1ccc(CS)cc1 >= 20%
## Output N

## Input # bool: growth inhibition of CC(=O)CC[N+](C)(C)C >= 20%
## Output N

## Input # bool: growth inhibition of O=S(=O)(O)CC[S][Sn]([S]CCS(=O)(=O)O)([c]1ccccc1)[c]1ccccc1 >= 20%
## Output Y

## Input # bool: growth inhibition of Cc1ccc(Nc2n[nH]c(=S)s2)cc1C >= 20%
## Output N

## Input # bool: growth inhibition of Clc1ccc(C(c2ccc(Cl)cc2)N2CCNCC2)cc1 >= 20%
## Output Y

## Input # bool: growth inhibition of Cc1c(N=Nc2ccc(Cl)cc2)c(C)n(C2OC(CO)C(O)C(O)C2O)c(=S)c1C#N (stereo not given) >= 20%
## Output N

---

Experiment: NCI Yeast Anticancer Drug Screen. Data for the wt1 strain (AID 149);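 further: 0% = growth of vehicle-treated wt1 cultures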
Conditions: S. cerevisiae wt1 strain (SPY 50644) growth inhibition; at 100.0 µM; active compounds read high
This is part of a sample that, as a whole, favours compounds with a hit. Of some 79,000 tested, about 15% had one in any assay. The source made the active and inactive calls. No stated cut-off is given here; in the data, active means growth inhibition above about 70%; inactive means the rest.
Please respond with reported growth inhibition for every item in the list.

// known answers, use as guide
* O=C(Cc1ccccc1F)NC1=C(Cl)C(=O)c2ccccc2C1=O | 17% (inactive)
* O=C(O)CN(CCNC(=O)OCC1c2ccccc2-c2ccccc21)CCNC(=O)OCC1c2ccccc2-c2ccccc21 | 94% (active)
* CCOC(=O)C1=C(C)NC(C)=C(C(=O)OCC)C1c1cccc([N+](=O)[O-])c1 | 88% (active)
* O=C(Nc1ccn(C2CC(O)C(COC(c3ccccc3)(c3ccccc3)c3ccccc3)O2)c(=O)n1)c1ccccc1 (stereo not given) | 89% (active)
* O=C1c2ccc(O)cc2C(=O)c2c(O)ccc(O)c21 | 93% (active)

// each listed compound needs a value for growth inhibition
1. [Cl][Pt+2][Cl].[NH-]CC1(C[NH-])CCCCC1
2. CN(NC(=O)/C(=C/C=C/c1ccccc1)NC(=O)c1ccccc1)C1=C(Cl)C(=O)[N+](c2ccccc2)=CC1

## Output
1: 98% (active); 2: 40% (inactive)

---

Please respond with reported growth inhibition for every item in the list.
Test: NCI Yeast Anticancer Drug Screen. Data for the bub3 strain (AID 167)
Conditions: S. cerevisiae bub3 mutant strain, at 5.0 µM (retest, dose inferred, filed as 0.5), active compounds read high
Compounds without any hit were thinned out: in the full panel of roughly 79,000, 15% have a hit.
Numbers only, in %.

// known answers, use as guide
* c1cc(Nc2ccc3c(c2)OCO3)c2cc(C3CCCCC3)ccc2n1 | 10
* Cc1ccc2c(/C=C/c3ccc(N(C)C)cc3)ccnc2c1C | 43
* CCCCCC/C(C)=N/Nc1ccc([N+](=O)[O-])cc1[N+](=O)[O-] | 7
* C[n+]1c(-c2ccc(NC(=O)c3ccc(C(=O)Nc4ccc(-c5cn6ccccc6[n+]5C)cc4)cc3)cc2)cn2ccccc21 | 37
* BrC/C=C/C[P+](c1ccccc1)(c1ccccc1)c1ccccc1 | 18

// each listed compound needs a value for growth inhibition
1. CCC(C)/C(C)=N/NC(N)=O (stereo not drawn)
2. COC1=C(N=[N+]=[N-])C(=O)c2ncccc2C1=O
3. CCC1SC(=S)N(c2ccc(Cl)cc2)C1=O (stereo not drawn)

## Output
1: 8; 2: -4; 3: -6

// each listed compound needs a value for growth inhibition
1. NCC(O)CSCc1ccc(Cl)cc1 (stereo not drawn)
2. CC[C@@]1(OC(=O)CN(C)C)C(=O)OCc2c1cc1n(c2=O)Cc2cc3ccccc3nc2-1
3. COc1ccc(C(=O)NCCN(C)C)c2nc3ccccc3cc12
4. c1ccc(N/N=C2\CC(c3ccccc3)Oc3ccccc32)cc1 (stereo not drawn)
5. Cc1ccc2nc(N/N=C/c3ccc(C)s3)cc(C)c2c1

## Output
-13
-3
22
-24
7

// each listed compound needs a value for growth inhibition
1. CC(O)CN1C(=O)c2cccc3cc([N+](=O)[O-])cc(c23)C1=O (stereo not drawn)
2. Cc1ccc(SSc2ccc(C)cc2[N+](=O)[O-])c([N+](=O)[O-])c1
3. CN(C)CCC(=O)c1c[nH]c2ccccc12

## Output
[8, 26, 22]

// each listed compound needs a value for growth inhibition
1. COc1ccc2nc3cccc([N+](=O)[O-])c3c(NCCCO)c2c1
2. Cc1cc(N(CCOS(C)(=O)=O)CCOS(C)(=O)=O)ccc1C=O

## Output
1: 16; 2: -3

// each listed compound needs a value for growth inhibition
1. O=C1C=CC(=O)N1c1ccc(Br)cc1Cl
2. O=S(=O)(CCC[C@H]1[C@@H](CCOCc2ccccc2)C2CCCN1O2)c1ccccc1 (stereo partly drawn)
3. CCN(CC)c1cccc(Nc2nc3ccccc3s2)c1
4. O=S(=O)(O)CC[S][Sn]([S]CCS(=O)(=O)O)([c]1ccccc1)[c]1ccccc1
5. O=C1C(Br)=CC(Br)(Br)C=C1Br

## Output
101
22
32
46
21
